target: T1, human MAdCAM expressed on cells (human, UniProt Q13477 19-382)
T1 construct: whole, on cells; also called MADCAM1
T1 sequence (looked up): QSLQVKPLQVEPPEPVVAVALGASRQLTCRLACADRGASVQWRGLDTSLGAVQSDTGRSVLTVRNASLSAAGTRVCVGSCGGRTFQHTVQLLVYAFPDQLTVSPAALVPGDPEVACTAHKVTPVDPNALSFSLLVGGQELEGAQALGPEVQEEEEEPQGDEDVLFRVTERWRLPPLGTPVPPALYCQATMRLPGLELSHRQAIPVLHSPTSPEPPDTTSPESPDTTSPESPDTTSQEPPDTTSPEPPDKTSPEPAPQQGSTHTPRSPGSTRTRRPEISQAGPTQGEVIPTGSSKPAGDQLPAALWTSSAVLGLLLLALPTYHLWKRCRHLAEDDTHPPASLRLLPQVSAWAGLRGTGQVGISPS
protocol-notes: cell binding
experimental-readout: binding result

Example entries begin here.
[
  {
    "binder": "MAdCAM Antibody Table 1 Clone 21 (scFv) scFv: EVQLLESGGGLVQPGGSLRLSCAASGFTFSNAWMSWVRQAPGKGLEWVSTIVGNGGATYYADSVKGRFTISRDNSKNTLYLQMNSLRAEDTAVYYCARDNPLRWQGMDVWGQGTLVTVSSGGGGSGGGGSGGGGSGGGGSDIQMTQSPSSLSASVGDRVTITCRASQDISNYLNWYQQKPGKAPKLLIYAASSLQSGVPSRFSGSGSGTDFTLTISSLQPEDFATYYCQQSYSIPPTFGPGTKVDIK",
    "val": "binds"
  },
  {
    "binder": "MAdCAM Antibody Table 1 Clone 13 (scFv) scFv: EVQLLESGGGLVQPGGSLRLSCAASGFTFDDYAMHWVRQAPGKGLEWVSYIDASGTTIYYADSVKGRFTISRDNSKNTLYLQMNSLRAEDTAVYYCAKDQAAAGYWYFDLWGRGTLVTVSSGGGGSGGGGSGGGGSGGGGSDIQMTQSPSSLSASVGDRVTITCQASQDISNYLNWYQQKPGKAPKLLIYKASTLESGVPSRFSGSGSGTDFTLTISSLQPEDFATYYCQQSYSTPITFGQGTRLEIK",
    "val": "binds"
  },
  {
    "binder": "MAdCAM Antibody Table 1 Clone 40 (scFv) scFv: QVQLVQSGAEVKKPGASVKVSCKASGYTFTSYGISWVRQAPGQGLEWMGIINPRGGSTIFAQKFQGRVTMTRDTSTSTVYMELSSLRSEDTAVYYCARGTRSSGWYGWFDPWGQGTLVTVSSGGGGSGGGGSGGGGSGGGGSDIQMTQSPSSLSASVGDRVTITCRASQGIGNWLAWYQQKPGKAPKLLIYAASNLETGVPSRFSGSGSGTDFTLTISSLQPEDFATYYCQQIHSYPLTFGGGTKVEIK",
    "val": "binds"
  },
  {
    "binder": "MAdCAM Antibody Table 1 Clone 64 (scFv) scFv: EVQLLESGGGLVKPGGSLRLSCAASGFAFSSHWMHWVRQAPGKGLEWVAGTSGSGESRDYADFVKGRFTISRDDSKNTLYLQMNSLKTEDTAVYYCARETYYYYYMDVWGKGTTVTVSSGGGGSGGGGSGGGGSGGGGSDIQMTQSPSSLSASVGDRVTITCRASQGISNYLAWYQQKPGKAPKLLIYDAANLEGGVPSRFSGSGSGTDFTLTISSLQPEDFATYYCQQSDIFPPTFGQGTKVEIK",
    "val": "binds"
  }
]

Now consider a different binder.
Enquiry: Return reported binding result; argument: MAdCAM Antibody Table 1 Clone 58 (scFv) scFv: QVQLVQSGAEVKKPGASVKVSCKASGYTFTGYYMHWVRQAPGQGLEWMGIINPSGGNTKYAQKFQGRVTMTRDTSTSTVYMELSSLRSEDTAVYYCTTADYYYYMDVWGKGTTVTVSSGGGGSGGGGSGGGGSGGGGSDIQMTQSPSSLSASVGDRVTITCRASQGISNYLAWYQQKPGKAPKLLIYAASSLQSGVPSRFSGSGSGTDFTLTISSLQPEDFATYYCQQYYSNADFGQGTKVEIK
Return: binds
